Below, each of the compounds is paired with its reported inhibition at 0.3 µM value.
subjectOfTest: mTOR (Homo sapiens)
experimentalProtocol: Kinase inhibition assay, P-33 labelled ATP phosphate transfer, mTOR
Assay type: biochemical
conditionParameters: read-out: mTOR(% Inh at 300 nM)
Hi! Could you send only the number? It should be in %, unit omitted.

Prompt: Requested read-out inhibition at 0.3 µM, target or system mTOR (Homo sapiens), entry O=c1nc(N2CCOCC2)oc2c(-c3ccc4c(c3)OCCO4)csc12 [Compound 12]
Response: 0

Prompt: Requested read-out inhibition at 0.3 µM, target or system mTOR (Homo sapiens), entry CN(C)c1ccc(-c2csc3c(=O)nc(N4CCOCC4)oc23)cc1 [Compound 15]
Response: 0

Prompt: Requested read-out inhibition at 0.3 µM, target or system mTOR (Homo sapiens), entry COc1cccc(-c2csc3c(=O)nc(N4CCOCC4)oc23)c1 [Compound 13]
Response: 0
